- measured-on: UniProt:Q76JU9
- Sequence (Q76JU9 whole entry): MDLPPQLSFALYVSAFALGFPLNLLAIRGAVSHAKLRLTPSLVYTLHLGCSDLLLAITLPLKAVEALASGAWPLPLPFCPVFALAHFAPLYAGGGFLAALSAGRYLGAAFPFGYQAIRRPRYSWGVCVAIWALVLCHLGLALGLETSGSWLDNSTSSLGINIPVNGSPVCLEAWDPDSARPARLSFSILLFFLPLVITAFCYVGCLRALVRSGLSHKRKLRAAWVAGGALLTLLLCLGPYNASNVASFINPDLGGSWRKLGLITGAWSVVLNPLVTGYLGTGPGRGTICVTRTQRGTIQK
- Sequence (P32121 whole entry partner): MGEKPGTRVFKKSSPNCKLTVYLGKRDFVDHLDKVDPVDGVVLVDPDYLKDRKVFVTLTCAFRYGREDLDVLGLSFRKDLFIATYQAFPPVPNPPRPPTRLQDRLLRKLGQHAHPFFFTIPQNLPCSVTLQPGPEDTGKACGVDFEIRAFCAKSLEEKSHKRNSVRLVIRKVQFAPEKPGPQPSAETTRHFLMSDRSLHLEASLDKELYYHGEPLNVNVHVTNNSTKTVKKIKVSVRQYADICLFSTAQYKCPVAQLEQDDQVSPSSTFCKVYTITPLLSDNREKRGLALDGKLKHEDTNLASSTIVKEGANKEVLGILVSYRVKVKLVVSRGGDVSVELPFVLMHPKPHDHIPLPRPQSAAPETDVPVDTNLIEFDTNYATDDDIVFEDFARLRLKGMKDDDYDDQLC
- run-description: Mouse beta-arrestin agonist assay with 1% FBS (PathHunter, U2OS mFFAR1)
- test-parameters: 1% FBS, 90 min; read-out: mGPR40 b-arrestin EC50
- Description: Human embryonic kidney (hEK293)-hFFAR1 cells are purchased from DiscoveRx. Human osteosarcoma (U2OS) cells expressing mFFAR1 are developed by DiscoveRX. These cells co-express the Prolink (PK)-tagged GPR40 and the Enzyme Acceptor (EA)-tagged beta-arrestin fusion proteins. […] Measurement of the chemiluminescent signal is ascertained with the Envision reader, after a 1-hour incubation at room temperature. […]
measure: EC50 (nM)
Write it as a number; the unit nM goes unstated.

Note to self: EC50 recorded for CC#C[C@@H](CC(=O)O)c1ccc(OCc2cc(-c3ccccc3C)cn3ncnc23)cc1 [Example 1] was 4.02
